// data source = PubChem BioAssay (NCI)

Quick reference for growth among some compounds
# System: LOX IMVI melanoma
# protocolNotes: NCI-60 one-dose screen, 48 h (100 = growth as untreated, 0 = no growth, -100 = all killed)
# assayContext: 10 µM unless noted
This is part of a sample that, as a whole, favours compounds with a hit. Of some 83,000 tested, about 20% had one in any assay. Activity calls are given as the source filed them. The calls were made as follows: active = growth percent below 10; inactive = the rest.
assayMetric: growth

[[record]]
compound = "NC(=O)c1ccc(-c2c3ccccc3cc3c2ccc2ccccc23)cc1"
assaysystem = "LOX IMVI melanoma"
assaymetric = "growth"
measvalue = "33.3% (inactive)"

[[record]]
compound = "O=C(O)c1ccc(-n2cc(/C=N/Nc3ccccc3)c(-c3ccc(F)cc3F)n2)cc1"
assaysystem = "LOX IMVI melanoma"
assaymetric = "growth"
measvalue = "18.5% (inactive)"

[[record]]
compound = "CCOC(=O)c1ccc2c(c1)nc(-c1ccccc1)n2C1CCCCC1"
assaysystem = "LOX IMVI melanoma"
assaymetric = "growth"
measvalue = "99.2% (inactive)"

[[record]]
compound = "O=C(Nc1ccc(Oc2cccc(Cl)c2)c(Cl)c1)c1cccnc1"
assaysystem = "LOX IMVI melanoma"
assaymetric = "growth"
measvalue = "51.7% (inactive)"

[[record]]
compound = "Cn1ccnc1C(=O)/C=C/c1ccc(CC(=O)Nc2cc(C(F)(F)F)cc(C(F)(F)F)c2)cc1"
assaysystem = "LOX IMVI melanoma"
assaymetric = "growth"
measvalue = "56.5% (inactive)"

[[record]]
compound = "N#Cc1ccc(O)c(C2=NCC(c3ccccc3)O2)c1 (stereo not drawn)"
assaysystem = "LOX IMVI melanoma"
assaymetric = "growth"
measvalue = "25.9% (inactive)"

[[record]]
compound = "C/C(=N\\O)c1ccc(Cl)cc1"
assaysystem = "LOX IMVI melanoma"
assaymetric = "growth"
measvalue = "105% (inactive)"

[[record]]
compound = "C=CCSc1nnc(NC(=O)CCl)s1"
assaysystem = "LOX IMVI melanoma"
assaymetric = "growth"
measvalue = "7.79% (active)"

[[record]]
compound = "COC(=O)c1nc(-c2ccccc2)oc1S(=O)(=O)Cc1ccccc1"
assaysystem = "LOX IMVI melanoma"
assaymetric = "growth"
measvalue = "61.1% (inactive)"

[[record]]
compound = "CCCCC1=C(P(=O)(O)O)N[C@H](C(=O)O)CS1"
assaysystem = "LOX IMVI melanoma"
assaymetric = "growth"
measvalue = "92.4% (inactive)"

[[record]]
compound = "CCN1C(=S)N(c2ccccc2)C2NC(=S)N(/N=C/C=C/c3ccccc3OC)C21 (stereo not drawn)"
assaysystem = "LOX IMVI melanoma"
assaymetric = "growth"
measvalue = "15.4% (inactive)"

[[record]]
compound = "C1CN(SSN2CCOCC2)CCO1"
assaysystem = "LOX IMVI melanoma"
assaymetric = "growth"
measvalue = "-41% [100 µM] (active)"

[[record]]
compound = "COc1ccccc1NC(=O)N=Nc1c(O)[nH]c2ccccc12"
assaysystem = "LOX IMVI melanoma"
assaymetric = "growth"
measvalue = "98.2% (inactive)"

[[record]]
compound = "Nc1c(C(=O)Nc2ccncc2)sc2nc3c(cc12)C(O)CCC3 (stereo not drawn)"
assaysystem = "LOX IMVI melanoma"
assaymetric = "growth"
measvalue = "105% (inactive)"

[[record]]
compound = "COc1ccc(-c2cc(-c3ccc(Cl)cc3)c(C#N)c(=O)n2Cc2ccc(C(=O)Nc3ccccc3N)cc2)cc1"
assaysystem = "LOX IMVI melanoma"
assaymetric = "growth"
measvalue = "69.3% (inactive)"

[[record]]
compound = "Nc1ncnc2c1C(c1ccccc1)c1ccc3ccccc3c1O2 (stereo not drawn)"
assaysystem = "LOX IMVI melanoma"
assaymetric = "growth"
measvalue = "72.1% (inactive)"

[[record]]
compound = "COc1cc(OC)c(/C=C/C(=O)c2c(OC)cccc2OC)c(OC)c1"
assaysystem = "LOX IMVI melanoma"
assaymetric = "growth"
measvalue = "-4.2% (active)"

[[record]]
compound = "O=C1c2ccc3c4c5ccc(c24)C(=O)N1CCCOCCCCOCCCNCc1ccc(cc1)CNCCCOCCCCOCCCN(C3=O)C5=O"
assaysystem = "LOX IMVI melanoma"
assaymetric = "growth"
measvalue = "-87.8% (active)"

[[record]]
compound = "Cc1ccc2c(n1)C(=O)C(Br)=C(CC(C)C)C2=O"
assaysystem = "LOX IMVI melanoma"
assaymetric = "growth"
measvalue = "98.1% (inactive)"

[[record]]
compound = "CCCNC(=O)Nc1ccc2cc3ccc(NC(=O)NCCC)cc3nc2c1"
assaysystem = "LOX IMVI melanoma"
assaymetric = "growth"
measvalue = "72.2% (inactive)"

[[record]]
compound = "COC(=O)C1Cc2ccccc2CN1C(=O)c1ccc2c(c1)Cc1ccccc1-2 (stereo not drawn)"
assaysystem = "LOX IMVI melanoma"
assaymetric = "growth"
measvalue = "35.8% [50 µM] (inactive)"

[[record]]
compound = "O=C(Nc1ccc(Oc2cccc(Cl)c2)c(Cl)c1)c1cnccn1"
assaysystem = "LOX IMVI melanoma"
assaymetric = "growth"
measvalue = "29.9% (inactive)"

[[record]]
compound = "CN1CCc2nc3sc(C(N)=O)c(N)c3c(-c3cccs3)c2C1"
assaysystem = "LOX IMVI melanoma"
assaymetric = "growth"
measvalue = "7.95% (active)"

